A compilation of Ki values for 5-hydroxytryptamine receptor 2A (Homo sapiens) from the published literature.

Param readout = Ki; param system = 5-hydroxytryptamine receptor 2A (Homo sapiens); param query = CN1CCCC(N(Cc2cc(-c3ccc4[nH]ncc4c3)ccc2F)C(=O)c2ccc(F)cc2)C1 (centres unmarked) ; response: value
0.7 nM

Param readout = Ki; param system = 5-hydroxytryptamine receptor 2A (Homo sapiens); param query = CN1CCC(N(Cc2cc(-c3ccc4[nH]ccc4c3)ccc2F)C(=O)c2ncccn2)CC1 ; response: value
16 nM

Param readout = Ki; param system = 5-hydroxytryptamine receptor 2A (Homo sapiens); param query = CCN1CCCC1CNC(=O)c1cc(S(=O)(=O)CC)c(NC)cc1OC (centres unmarked) ; response: value
490 nM

Param readout = Ki; param system = 5-hydroxytryptamine receptor 2A (Homo sapiens); param query = O=C(CC1COCCO1)N[C@H]1CC[C@H](CCN2CCC(c3coc4ccccc34)CC2)CC1 (mixture of isomers) ; response: value
2.04 nM

Param readout = Ki; param system = 5-hydroxytryptamine receptor 2A (Homo sapiens); param query = Fc1ccc(-c2ccc3[nH]nnc3c2)cc1CN(Cc1cccs1)C1CCNCC1 ; response: value
0.37 nM

Param readout = Ki; param system = 5-hydroxytryptamine receptor 2A (Homo sapiens); param query = O=c1c(N2CCNCC2)nccn1CCOc1ccc(Oc2ccccc2)cc1 ; response: value
4.4 nM

Param readout = Ki; param system = 5-hydroxytryptamine receptor 2A (Homo sapiens); param query = CCS(=O)(=O)N[C@H]1CC[C@H](CCN2CCN(c3nccc4c3OCC4)CC2)CC1 ; response: value
60.5 nM

Param readout = Ki; param system = 5-hydroxytryptamine receptor 2A (Homo sapiens); param query = O=C(N[C@H]1CC[C@H](CCN2CCN(c3nccc4c3OCC4)CC2)CC1)c1ccc(-n2cccn2)cc1 ; response: value
29.2 nM

Param readout = Ki; param system = 5-hydroxytryptamine receptor 2A (Homo sapiens); param query = O=C(N[C@H]1CC[C@H](CCN2CCN(c3nccc4c3OCC4)CC2)CC1)c1ccc(C(F)(F)F)cc1 ; response: value
78.7 nM

Param readout = Ki; param system = 5-hydroxytryptamine receptor 2A (Homo sapiens); param query = CO[C@H]1CC[C@H](CC(=O)N[C@H]2CC[C@H](CCN3CCN(c4nccc5ccsc45)CC3)CC2)CC1 ; response: value
9.6 nM

Param readout = Ki; param system = 5-hydroxytryptamine receptor 2A (Homo sapiens); param query = CN1CCN(c2ccc3c(c2)CN(S(=O)(=O)c2cc(Cl)cc(Cl)c2)C3)CC1 ; response: value
520 nM

Param readout = Ki; param system = 5-hydroxytryptamine receptor 2A (Homo sapiens); param query = Fc1ccc(CN(Cc2cc(-c3ccc4[nH]ncc4c3)ccc2F)C2CCNCC2)cc1 ; response: value
0.51 nM

Param readout = Ki; param system = 5-hydroxytryptamine receptor 2A (Homo sapiens); param query = Fc1ccc2c(C3CCN(CCCCn4ccc5ccc(F)cc54)CC3)noc2c1 ; response: value
2.79 nM

Param readout = Ki; param system = 5-hydroxytryptamine receptor 2A (Homo sapiens); param query = O=C(N[C@H]1CC[C@H](CCN2CCN(c3nccc4c3OCC4)CC2)CC1)c1ccc(N2CCCCC2)cc1 ; response: value
50.6 nM

Param readout = Ki; param system = 5-hydroxytryptamine receptor 2A (Homo sapiens); param query = O=C(CC1CCOCC1)N[C@H]1CC[C@H](CCN2CCN(c3nccc4c3OCC4)CC2)CC1 ; response: value
48.9 nM

Param readout = Ki; param system = 5-hydroxytryptamine receptor 2A (Homo sapiens); param query = Cc1nc2c(o1)C(=O)N(CCN1CCC(c3noc4ccccc34)CC1)CC2 ; response: value
9.3 nM

Param readout = Ki; param system = 5-hydroxytryptamine receptor 2A (Homo sapiens); param query = CN1CCC(N(Cc2cc(-c3ccc4[nH]nnc4c3)ccc2F)C(=O)c2ccc(F)cc2)CC1 ; response: value
1.35 nM

Param readout = Ki; param system = 5-hydroxytryptamine receptor 2A (Homo sapiens); param query = Fc1ccc2c(C3CCN(CCCCn4cnc5ccc(F)cc54)CC3)noc2c1 ; response: value
2.69 nM

Param readout = Ki; param system = 5-hydroxytryptamine receptor 2A (Homo sapiens); param query = CN(C)CCN(Cc1cccc(-c2ccc3[nH]c(=O)sc3c2)c1)C(=O)c1ccc(Cl)cc1 ; response: value
4.1 nM

Param readout = Ki; param system = 5-hydroxytryptamine receptor 2A (Homo sapiens); param query = O=C(c1ccc(F)cc1)N(CCN1CCCC1)Cc1cncc(-c2ccc3[nH]ccc3c2)c1 ; response: value
1.1 nM

Param readout = Ki; param system = 5-hydroxytryptamine receptor 2A (Homo sapiens); param query = O=C(c1ccc(F)cc1)N(Cc1cc(-c2ccc3[nH]nnc3c2)ccc1F)C1CCNCC1 ; response: value
0.67 nM

Param readout = Ki; param system = 5-hydroxytryptamine receptor 2A (Homo sapiens); param query = Fc1ccc([C@H]2CNCCN2Cc2cncc(-c3ccc4[nH]ncc4c3)c2)cc1 ; response: value
0.4 nM

Param readout = Ki; param system = 5-hydroxytryptamine receptor 2A (Homo sapiens); param query = CCCCOc1cccc(OCCn2ccnc(N3CCNCC3)c2=O)c1 ; response: value
2.5 nM
